# System: LOC_OS02G08530-cb003;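 note: purified Escherichia coli-expressed rice kinase domain construct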
# Test name: thermal shift delta Tm vs DMSO control; higher = stronger stabilization (binding)
# Cond: 12.5 µM; protein concentration 2 µM
Tag: label 1 if measured thermal shift delta Tm is not below 0.5 °C, label 0 if it is.

Compound | Cat
COc1cc2ccc(=O)oc2cc1O [Scopoletin] | label 0
CCc1nc(C(N)=O)c(Nc2ccc(N3CCC(N4CCN(C)CC4)CC3)c(OC)c2)nc1NC1CCOCC1 [Gilteritinib (ASP2215)] | label 1
C[C@@H]1CN(C(=O)c2ccc(NC(=O)c3cc(O[C@H](C)c4c(Cl)ccc(F)c4Cl)c(N)nn3)cc2)C[C@H](C)N1 [Ensartinib (X-396)] | label 1
Cc1nc(NC(=O)N2CCC[C@H]2C(N)=O)sc1-c1ccnc(C(C)(C)C(F)(F)F)c1 [Alpelisib (BYL719)] | label 0
Cc1ccc(-n2nc(C(C)(C)C)cc2NC(=O)Nc2ccc(OCCN3CCOCC3)c3ccccc23)cc1 [Doramapimod (BIRB 796)] | label 1
O=C(Nc1cccc(Nc2ncc(Br)c(NCCc3cnc[nH]3)n2)c1)N1CCCC1 | label 1

// switching to the query compound
Quick check: does `Fc1ccc2[nH]ccc2c1-c1nc(N2CCOCC2)c2sc(CN3CCN(CC4CC4)CC3)cc2n1` have thermal shift delta Tm greater than or equal to 0.5 °C?
label 0
